This collection of values is drawn from paper PMC6891695.

Entries and their LC50 at 48 h
Test: Artemia salina toxicity assay
Type: in vivo
Conditions: Artemia salina, in vivo; 48 h; read-out: EC50 Artemia salina toxicity (mortality)
Give your result in µM as a bare value.

Before answering, review these 7 worked examples.
> print(dat)
                                   compound  measurement.name  numeric.value
1  CC1=C2CC[C@@](C)(Cl)[C@@H](Br)C[C@]2(C)[C@@H](C)[C@@H](Br)[C@@H]1O [Compound 9, perforenol]      LC50 at 48 h            189
2  C#CC=CCC1OC(C(Br)CC)CC(OC(C)=O)C(Cl)CC1Cl (centres unmarked) [Compound 22, laurencienyne]      LC50 at 48 h           9.63
3  C=CC(C)(O)CC[C@@H]1C(=C)CC[C@@H](Br)[C@@]1(C)CCC1OC1(C)C (some centres unmarked) [Compound 18]      LC50 at 48 h           38.1
4  CC1(C(Br)CO)CC=C2C(C1)C(O)CC1C2(C)CCC(Br)C1(C)C (centres unmarked) [Compound 14]      LC50 at 48 h           15.1
5  CC1C(Br)C(=O)C(C)C23CCC2(C)C(Br)CC13C (centres unmarked) [Compound 11, perforatone]      LC50 at 48 h           1.57
6  C=C1C[C@H](O)[C@H](Br)C(C)(C)[C@@]12CCC(C)=C(Cl)C2 [Compound 12, elatol]      LC50 at 48 h          0.373
7  C=C(C1CCC(C)(O)C(Br)C1)C1C(Br)C2C(CCC2(C)O)C1(C)C (centres unmarked) [Compound 19, neorogioldiol]      LC50 at 48 h            304

# context switch: different compound, same LC50 at 48 h
Qu. Could you share which LC50 at 48 h value was measured for Cc1ccc(C2(C)CCC(=CBr)C2C)c(O)c1 (centres unmarked) [Compound 4, iso-laurenisol] ?
Ans. 0.739

---

Experiment: in vivo
Format: in vivo
Settings: Amphibalanus amphitrite, in vivo; 72 h exposure; read-out: LC50 Mortality
Listing: LC50 at 72 h of selected compounds
Field: numeric (µM). Do not append units.

Some solved cases for reference:
> print(dat)
                                   compound  unit.spec  numeric.value
1  C=C(C1CCC(C)(O)C(Br)C1)C1C(Br)C2C(CCC2(C)O)C1(C)C (centres unmarked) [Compound 19, neorogioldiol]         µM            573
2  CC1=C2CC[C@@](C)(Cl)[C@@H](Br)C[C@]2(C)[C@@H](C)[C@@H](Br)[C@@H]1O [Compound 9, perforenol]         µM           49.1
3  C=CC(C)(O)CC[C@H](Br)[C@@]1(C)CC[C@H](Br)C(C)(C)O1 (some centres unmarked) [Compound 13, obtusenol]         µM           8.15

Qu. LC50 at 72 h lookup needed for C=C1CC[C@@](C)(c2cc(Br)c(C)cc2OC(C)=O)[C@H]1C [Compound 3, allolaurinterol acetate] , thanks.
Ans. 269

---

Experiment: in vivo
Format: in vivo
Settings: Amphibalanus amphitrite, in vivo; 48 h exposure; read-out: LC50 Mortality
The label Fulfilled is reserved for LC50 at 48 h strictly under 40 µM; Not fulfilled covers values equal to or above it.

A selection of reference data follows.
> print(dat)
                                   compound  discrete.label
1  CC(C)C1=C2CCC(C)C2CC(C)(C)C1O (centres unmarked) [Compound 8, 4-hydroxy-5-brasilene]       Fulfilled
2  CC1C(Br)C(=O)C(C)C23CCC2(C)C(Br)CC13C (centres unmarked)       Fulfilled
3  C=C(C1CCC(C)(O)C(Br)C1)C1C(Br)C2C(CCC2(C)O)C1(C)C (centres unmarked)   Not fulfilled

Qu. Lab note: confirm whether the reported LC50 at 48 h for this compound is below 40 µM, equality not counting. compound: C=CC(C)(O)CCC1C(=C)CCC(Br)C1(C)CCC(O)C(C)(C)Cl (centres unmarked)
Ans. Not fulfilled

Qu. Please check: LC50 at 48 h for Cc1cc(O)c(C2(C)CCC3CC32C)cc1Br (centres unmarked) , strictly under 40 µM or not?
Ans. Fulfilled

---

Test system: cyprids of A. amphitrite
Assay: whole plant or invertebrate
Format: in vivo
Details: Amphibalanus amphitrite, 48 h, read-out: EC50 No Metamorphosis
Recorded measurements of EC50, one per entry
Reply with just the number (in µM).

> print(dat)
                                   compound  measurement.name  numeric.value
1  CC1C(Br)C(=O)C(C)C23CCC2(C)C(Br)CC13C (centres unmarked) [Compound 11, perforatone]              EC50          0.002
2  C=CC(C)(O)CC[C@H](Br)[C@@]1(C)CC[C@H](Br)C(C)(C)O1 (some centres unmarked) [Compound 13, obtusenol]              EC50           64.7
3  C=C(C1CCC(C)(O)C(Br)C1)C1C(Br)C2C(CCC2(C)O)C1(C)C (centres unmarked) [Compound 19, neorogioldiol]              EC50           57.9
4  CC1(C(Br)CO)CC=C2C(C1)C(O)CC1C2(C)CCC(Br)C1(C)C (centres unmarked) [Compound 14]              EC50           5.15
5  Cc1ccc(C2(C)CCC(=CBr)C2C)c(O)c1 (centres unmarked) [Compound 4, iso-laurenisol]              EC50           12.4
6  CC(=CC=CC1(C)CCC(Br)C(C)(C)O1)C1CCC(C)(O)C(Br)C1 (centres unmarked) [Compound 20]              EC50           11.3

Qu. I'm curious: which EC50 was measured for Cc1cc2c(cc1Br)C1(C)CCC(C)(O2)C1C (centres unmarked) [Compound 5, filiformin] tested on cyprids of A. amphitrite?
Ans. 0.001

Qu. Give EC50 (cyprids of A. amphitrite) of the following compound: C#CC=CCC1OC(C(Br)CC)CC(OC(C)=O)C(Cl)CC1Cl (centres unmarked) [Compound 22, laurencienyne]
Ans. 0.01

Qu. // map Cc1cc(O)c(C2(C)CCC3CC32C)cc1Br (centres unmarked) [Compound 6, laurinterol] to recorded EC50 (system: cyprids of A. amphitrite)
Ans. 10.8

Qu. Any idea what EC50 came out for C=C1CC[C@@](C)(c2cc(Br)c(C)cc2OC(C)=O)[C@H]1C [Compound 3, allolaurinterol acetate] on cyprids of A. amphitrite?
Ans. 80.9

Qu. What EC50 appears in the records for this compound with cyprids of A. amphitrite? CC(C)[C@H]1CC(C)(C)[C@@H](O)C2=C1CC[C@H]2C [Compound 7, epibrasilenol]
Ans. 21.7

Qu. Notebook: pull reported EC50 for cyprids of A. amphitrite, entry CC(C)[C@@H]1CC=C[C@H]2[C@H]3[C@](C)(CC[C@]12CBr)[C@@H](Br)CC[C@@]3(C)O [Bromosphaerol, reference compound]
Ans. 0.267

Qu. Form field: EC50 recorded for CC1=CC[C@@]2(C)C(=C(C)C(=O)[C@@H](O)[C@@H]2C)CC1 [Compound 10, perforenone A] with cyprids of A. amphitrite (enter value)
Ans. 71

Qu. Form field - read-out: EC50; system: cyprids of A. amphitrite; submitted item: C=CC(C)(O)CCC1C(=C)CCC(Br)C1(C)CCC(Br)C(C)(C)O (centres unmarked) [Compound 17]
Ans. 0.921

Qu. What EC50 appears in the records for this compound with cyprids of A. amphitrite? C#CC=CCC1OC(C=CC)CC=CCC1Cl (centres unmarked) [Compound 21, (3Ε)-laurenyne]
Ans. 18.2

Qu. Which EC50 is reported with cyprids of A. amphitrite for this entry: C=C1C[C@H](O)[C@H](Br)C(C)(C)[C@@]12CCC(C)=C(Cl)C2 [Compound 12, elatol] ?
Ans. 0.25

Qu. Give EC50 (cyprids of A. amphitrite) of the following compound: C=CC(C)(O)CC[C@@H]1C(=C)CC[C@@H](Br)[C@@]1(C)CCC1OC1(C)C (some centres unmarked) [Compound 18]
Ans. 50.4

Qu. # query: EC50 | item CCC=CCC(Br)C(CC1OC(C=C=CBr)CC1OC(C)=O)OC(C)=O (centres unmarked) [Compound 23, graciosallene] | system: cyprids of A. amphitrite
Ans. 10.3

Qu. Request - read-out EC50 | tested on cyprids of A. amphitrite | compound CC1=C2CC[C@@](C)(Cl)[C@@H](Br)C[C@]2(C)[C@@H](C)[C@@H](Br)[C@@H]1O [Compound 9, perforenol]
Ans. 47.4

Qu. Please state recorded EC50 (tested on cyprids of A. amphitrite) of C=CC(C)(O)CCC1C(=C)CCC(Br)C1(C)CCC(O)C(C)(C)Cl (centres unmarked) [Compound 16]
Ans. 49.1

Qu. # returns recorded EC50 (system: cyprids of A. amphitrite) for CC(=O)OCC(Br)C1(C)CC=C2C(C1)C(O)CC1C2(C)CC(OC(C)=O)C2CC21C (centres unmarked) [Compound 15, deoxyparguerol 16-acetate]
Ans. 55.1

Qu. // map CC(C)C1=C2CCC(C)C2CC(C)(C)C1O (centres unmarked) [Compound 8, 4-hydroxy-5-brasilene] to recorded EC50 (system: cyprids of A. amphitrite)
Ans. 5.01

Qu. // fetch cyprids of A. amphitrite EC50 for C=C1CC[C@@](C)(c2ccc(C)cc2OC(C)=O)[C@H]1C [Compound 2, debromoallolaurinterol acetate]
Ans. 38.2
